Reference source for all entries: PubChem BioAssay (NCATS)

Assay: Quantitative highthroughput screen to assess conditional lethalithy of P12 Ichikawa cells grown in Human Plasma-Like Medium with dialyzed fetal bovine serum (HPLM+ds) (AID 1963879); further: nearly all actives have a fitted effect of over 35% in size
Conditions: ATP luminescence, 48 h; viability; series mostly up to 45.8 µM
Results filed as inconclusive are left out. Active and inactive are the calls of the source. The call rests on the fitted dose curve; in most records, active means well fitted cell-killing curve with a large enough effect; inconclusive means small, poorly fitted or top-dose-only effect; inactive means flat fitted curve, though single readings scatter.
A correct response names exactly one class from Yes (active), No (inactive)

compound: COc1c(N2CCNC(C)C2)c(F)cc2c(=O)c(C(=O)O)cn(C3CC3)c12 (centres undefined)
discrete-label: No

Write down the call the test reported for this compound. Item: "CN1CCC(=C2c3ccccc3CCc3sccc32)CC1" No

Write down the call the test reported for this compound. Item: "CCCNS(=O)(=O)Nc1ncnc(OCCOc2ncc(Br)cn2)c1-c1ccc(Br)cc1" No

Write down the call the test reported for this compound. Item: "CC(C)c1ccccc1Cc1cc(C(=O)Nc2ccc(S(=O)(=O)c3ccccc3C(C)(C)C)cc2)c(O)c(O)c1O" No

Write down the call the test reported for this compound. Item: "O=[N+]([O-])c1ccc(Nc2ccccc2-c2ccccc2)c2nonc12" No

Write down the call the test reported for this compound. Item: "Cc1[nH]c2ccccc2c1CCNCc1ccc(C=CC(=O)NO)cc1" Yes

Write down the call the test reported for this compound. Item: C=C1CCC2[C@](C)(CO)C(O)CC[C@]2(C)C1CC=C1C(=O)OCC1O (some centres undefined) No

Write down the call the test reported for this compound. Item: "CCNC(=O)[C@H]1O[C@@H](n2cnc3c(N)nc(NCCc4ccc(CCC(=O)O)cc4)nc32)[C@H](O)[C@H]1O" No
